Target: FP receptor (Homo sapiens (Human), UniProt P43088)
Sequence (P43088 whole entry): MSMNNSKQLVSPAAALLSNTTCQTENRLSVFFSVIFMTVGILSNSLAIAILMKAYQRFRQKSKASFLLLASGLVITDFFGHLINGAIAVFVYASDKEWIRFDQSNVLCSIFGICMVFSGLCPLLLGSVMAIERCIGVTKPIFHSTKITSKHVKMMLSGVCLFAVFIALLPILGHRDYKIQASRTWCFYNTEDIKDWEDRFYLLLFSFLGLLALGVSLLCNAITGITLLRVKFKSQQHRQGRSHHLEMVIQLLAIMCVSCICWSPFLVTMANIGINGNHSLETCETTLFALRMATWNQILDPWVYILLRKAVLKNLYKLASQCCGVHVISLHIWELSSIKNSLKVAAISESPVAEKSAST
Experiment: In vitro test of inhibition of human FP receptor activity (PGF2α-induced calcium flux in FP-expressing CHEM1 cells)
Conditions: PGF2α-induced (2 nM) calcium flux in FP-expressing CHEM1 cells; some as mean values from multiple determinations
recorded-metric: IC50

>  <molecule>
Cc1c(-c2ccccc2)nc2ccc(Br)cc2c1C(=O)NCC(CC(=O)O)c1ccc(Cl)cc1 (racemic) [Example 66]

>  <system-name>
FP receptor (Homo sapiens (Human), UniProt P43088)

>  <IC50>
0.5 µM

$$$$
>  <molecule>
Cc1c(-c2ccccc2)nc2ccc(Br)cc2c1C(=O)NCC(NCC(=O)O)c1ccccc1Cl (racemic)

>  <system-name>
FP receptor (Homo sapiens (Human), UniProt P43088)

>  <IC50>
0.067 µM

$$$$
>  <molecule>
Cc1c(-c2ccccc2)nc2ccc(Br)cc2c1C(=O)NCC(C)(CC(=O)O)c1ccccc1F (single isomer, unassigned; (+)) [Example 115]

>  <system-name>
FP receptor (Homo sapiens (Human), UniProt P43088)

>  <IC50>
0.031 µM

$$$$

Request: Please look up its IC50: Cc1c(-c2ccccc2)nc2ccc(Br)cc2c1C(=O)NCC(C)(C(=O)O)c1c(F)cccc1F (single isomer, unassigned; (-)) [Example 34]
Response: 0.13 µM

Request: Need IC50 of Cc1c(-c2ccccc2)nc2ccc(Br)cc2c1C(=O)NCC(C)(CCCC(=O)O)c1ccccc1Cl (single isomer, unassigned; (-)) [Example 241] , thanks.
Response: 0.068 µM

Request: Given the molecule Cc1ccc(C(CNC(=O)c2c(C)c(-c3ccccc3)nc3ccc(Br)cc23)CC(=O)O)cc1 (racemic) [Example 90] , what is its reported IC50?
Response: 0.47 µM

====

Catalogue of log10 IC50 values
Molecular target: FP receptor (Homo sapiens (Human), UniProt P43088)
Assay: In vitro test of inhibition of human FP receptor activity (PGF2α-induced calcium flux in FP-expressing CHEM1 cells)
Details: PGF2α-induced (2 nM) calcium flux in FP-expressing CHEM1 cells; some as mean values from multiple determinations
Parameter value (number): base-10 log of IC50 in nM.

Solved entries:
>  <molecule>
Cc1cccc(C(CNC(=O)c2c(C)c(-c3ccccc3)nc3ccc(Br)cc23)CC(=O)O)c1 (racemic) [Example 93]

>  <log10 IC50>
1.90

$$$$
>  <molecule>
Cc1c(-c2ccccc2)nc2ccc(Br)cc2c1C(=O)NCC(CCC(=O)O)c1ccccc1OC(F)F (single isomer, unassigned; (+)) [Example 180]

>  <log10 IC50>
0.91

$$$$
>  <molecule>
COc1cccc(C(CNC(=O)c2c(C)c(-c3ccccc3)nc3ccc(Br)cc23)C(=O)O)c1 (racemic) [Example 44]

>  <log10 IC50>
2.28

$$$$

Request: Can you look up log10 IC50 on FP receptor (Homo sapiens (Human), UniProt P43088) for Cc1c(-c2ccccc2)nc2ccc(Br)cc2c1C(=O)NC(C)C(CC(=O)O)c1ccccc1Cl (racemic) [Example 145] ?
Response: 1.69

Request: # get_value(readout= log10 IC50, system= FP receptor (Homo sapiens (Human), UniProt P43088)) for Cc1c(-c2ccccc2)nc2ccc(Br)cc2c1C(=O)NCC(C(=O)O)c1ccc(F)cc1 (single isomer, unassigned) [Example 12]
Response: 2.26
